Data origin: patent US20250250357A1

ASSAYED_TARGET: T1, human MSLN-hFc protein (Acro, Cat. No. MSN-H5253) (human, UniProt Q13421 296-580)
T1 construct: the method names the coated protein as human MSLN-hFc (Acro); also called human MSLN full-length protein
T1 sequence (Q13421 other isoform, or with tags, fused parts or gaps limits assumed): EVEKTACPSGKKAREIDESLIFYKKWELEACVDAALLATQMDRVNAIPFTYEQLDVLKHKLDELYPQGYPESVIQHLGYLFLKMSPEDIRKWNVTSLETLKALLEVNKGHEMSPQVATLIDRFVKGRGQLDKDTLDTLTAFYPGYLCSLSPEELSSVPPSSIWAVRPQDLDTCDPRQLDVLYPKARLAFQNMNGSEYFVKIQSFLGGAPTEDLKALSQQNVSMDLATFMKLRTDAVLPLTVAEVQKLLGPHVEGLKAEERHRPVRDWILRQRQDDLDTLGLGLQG
TEST_DETAILS: ELISA on coated antigen, antibody 100 nM
ENDPOINT_NAME: OD450 (OD450)
All answers are understood in OD450, so give the number only.

Query OD450 for F7.33.24-H6 (scFv, not shown: small tags and cut ends, also called S009-F7.33.24 humanized antibody VH1a + VL3) scFv: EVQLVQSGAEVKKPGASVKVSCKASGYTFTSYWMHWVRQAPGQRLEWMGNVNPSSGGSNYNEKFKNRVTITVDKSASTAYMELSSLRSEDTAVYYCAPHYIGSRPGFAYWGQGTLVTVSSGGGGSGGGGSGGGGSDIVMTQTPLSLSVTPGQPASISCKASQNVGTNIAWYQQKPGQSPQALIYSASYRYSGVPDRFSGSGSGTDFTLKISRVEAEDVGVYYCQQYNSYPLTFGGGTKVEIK
2.96

Dear colleague, please send me the reported OD450 for F7.33.24-H8 (scFv, not shown: small tags and cut ends, also called S009-F7.33.24 humanized antibody VH2 + VL2) scFv: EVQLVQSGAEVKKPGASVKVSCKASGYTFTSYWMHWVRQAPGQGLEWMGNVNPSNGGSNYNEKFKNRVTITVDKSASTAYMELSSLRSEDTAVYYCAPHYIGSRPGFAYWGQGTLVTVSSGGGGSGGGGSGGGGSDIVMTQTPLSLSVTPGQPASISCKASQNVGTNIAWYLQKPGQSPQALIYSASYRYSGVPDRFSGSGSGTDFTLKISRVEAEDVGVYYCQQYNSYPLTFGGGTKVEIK when you can.
2.7
